# credit: paper PMC6030077

# assayedSystem: HDAC6 (Homo sapiens, UniProt Q9UBN7)
# Sequence (Q9UBN7 whole entry): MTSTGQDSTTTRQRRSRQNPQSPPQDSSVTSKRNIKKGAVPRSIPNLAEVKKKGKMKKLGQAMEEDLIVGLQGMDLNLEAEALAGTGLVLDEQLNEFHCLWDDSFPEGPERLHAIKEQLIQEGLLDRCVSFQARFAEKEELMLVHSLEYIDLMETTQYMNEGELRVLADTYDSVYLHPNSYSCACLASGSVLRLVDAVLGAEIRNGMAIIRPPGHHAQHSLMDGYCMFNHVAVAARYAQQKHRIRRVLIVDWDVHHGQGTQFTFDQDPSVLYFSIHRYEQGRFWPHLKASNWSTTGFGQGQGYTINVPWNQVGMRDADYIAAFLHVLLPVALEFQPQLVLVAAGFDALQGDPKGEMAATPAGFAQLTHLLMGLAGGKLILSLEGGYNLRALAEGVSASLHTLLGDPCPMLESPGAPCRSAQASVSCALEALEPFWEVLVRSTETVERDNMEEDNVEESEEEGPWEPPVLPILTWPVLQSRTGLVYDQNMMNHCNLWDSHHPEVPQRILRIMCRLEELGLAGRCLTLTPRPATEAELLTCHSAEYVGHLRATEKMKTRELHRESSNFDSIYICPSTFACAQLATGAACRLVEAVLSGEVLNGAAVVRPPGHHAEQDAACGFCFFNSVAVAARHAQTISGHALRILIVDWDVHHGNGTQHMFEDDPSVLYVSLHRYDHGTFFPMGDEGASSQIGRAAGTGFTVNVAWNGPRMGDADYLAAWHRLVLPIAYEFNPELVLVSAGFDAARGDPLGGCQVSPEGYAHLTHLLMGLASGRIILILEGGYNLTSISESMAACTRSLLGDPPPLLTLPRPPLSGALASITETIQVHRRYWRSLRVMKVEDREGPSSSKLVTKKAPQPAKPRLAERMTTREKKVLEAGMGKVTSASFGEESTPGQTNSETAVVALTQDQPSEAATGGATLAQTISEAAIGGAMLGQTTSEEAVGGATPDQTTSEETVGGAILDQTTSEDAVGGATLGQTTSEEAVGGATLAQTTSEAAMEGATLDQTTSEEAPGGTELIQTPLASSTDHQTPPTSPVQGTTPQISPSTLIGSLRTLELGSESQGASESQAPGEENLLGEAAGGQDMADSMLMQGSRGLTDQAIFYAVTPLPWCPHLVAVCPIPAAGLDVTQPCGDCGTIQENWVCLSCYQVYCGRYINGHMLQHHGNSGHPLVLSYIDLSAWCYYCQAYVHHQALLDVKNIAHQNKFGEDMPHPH
# procedureDetails: In-cell target engagement (NanoBRET) assay, NanoLuc-HDAC6
# conditionContext: HeLa cells stably transfected with NanoLuc-HDAC6, 2 h
metric: pIC50
// pIC50: -log10(molar conc.)

What measured pIC50 goes with CN1C(=O)C2CN(Cc3c2c2ccccc2n3Cc2ccc(C(=O)NO)cc2)C1=O (stereo not shown) ? 8.66

---

# assayedSystem: HDAC10 (Homo sapiens)
# Construct: NanoLuc®-HDAC10 FL Fusion Vector
# Sequence (Q969S8 1-669): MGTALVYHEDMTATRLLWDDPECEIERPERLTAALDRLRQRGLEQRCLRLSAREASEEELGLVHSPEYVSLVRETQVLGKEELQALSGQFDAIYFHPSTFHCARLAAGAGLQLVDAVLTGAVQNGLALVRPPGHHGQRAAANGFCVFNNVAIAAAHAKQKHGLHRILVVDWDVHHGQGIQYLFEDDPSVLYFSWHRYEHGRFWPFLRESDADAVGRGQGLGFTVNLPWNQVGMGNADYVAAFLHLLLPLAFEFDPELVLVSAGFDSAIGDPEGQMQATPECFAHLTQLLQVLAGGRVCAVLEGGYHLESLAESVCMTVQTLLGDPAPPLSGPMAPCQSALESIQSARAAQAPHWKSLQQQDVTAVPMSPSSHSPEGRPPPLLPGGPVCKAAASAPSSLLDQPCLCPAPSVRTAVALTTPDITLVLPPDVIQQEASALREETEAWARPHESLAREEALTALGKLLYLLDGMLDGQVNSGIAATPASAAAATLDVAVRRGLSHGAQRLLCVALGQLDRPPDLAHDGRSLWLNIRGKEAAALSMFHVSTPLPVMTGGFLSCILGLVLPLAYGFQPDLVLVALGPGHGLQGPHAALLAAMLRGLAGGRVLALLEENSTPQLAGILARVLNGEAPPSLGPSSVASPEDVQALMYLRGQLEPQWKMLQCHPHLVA
# procedureDetails: In-cell target engagement (NanoBRET) assay, NanoLuc-HDAC10
# conditionContext: HeLa cells stably transfected with NanoLuc-HDAC10, 2 h
metric: pIC50
Reminder that pIC50 is minus the log10 of a molar concentration.

Recorded pIC50 of CN1C(=O)C2CN(Cc3c2c2ccccc2n3Cc2ccc(C(=O)NO)cc2)C1=O (stereo not shown) [Marbostat-100] , please. 6.25

---

# Test system: BE(2)-C cells
# procedureDetails: Flow cytometric analysis of LysoTracker DND-99 staining (lysosomal accumulation)
# Type: cell-based, human
# conditionContext: 24 h treatment, read-out: LysoTracker staining EC50
metric: pEC50
// pEC50 is dimensionless: -log10 of concentration (M)

Entry CN1C(=O)C2CN(Cc3c2c2ccccc2n3Cc2ccc(C(=O)NO)cc2)C1=O (stereo not shown) has what pEC50? 5.18
